Reported inhibition at 24 h, 10 µM values for a set of molecules
# ASSAY OVERVIEW: Growth inhibition of human HEK293T cells at 10 uM after 24 hrs by MTS assay relative to control
# Assay type: cell-based, HEK-293T
# ASSAY CONTEXT: HEK293T cells, read-out: GI

Would you please look over these solved cases?
>>> observed_value("CC1(C)C=Cc2c(cc3occ(-c4ccc(O)cc4)c(=O)c3c2O)O1")
"15%"
>>> observed_value("CC(C)=CCc1c(O)ccc(-c2coc3c(CC=C(C)C)c(O)cc(O)c3c2=O)c1O")
"10%"
>>> observed_value("C=CC(C)(C)c1cc(/C=C/C(=O)c2ccc(O)cc2)c(OC)cc1O")
"4%"
>>> observed_value("CC1(C)C=Cc2c(ccc(-c3cc4ccc(O)cc4o3)c2O)O1")
"11%"
>>> observed_value("CC(C)=CCc1cc(/C=C/C(=O)c2ccc(O)cc2O)ccc1O")
"2%"
>>> observed_value("CC(C)=CCc1cc([C@@H]2CC(=O)c3c(O)cc(O)c(CC=C(C)C)c3O2)ccc1O")
"6%"
>>> observed_value("CC(C)=CCc1cc(/C=C/C(=O)c2ccc(O)c(CC=C(C)C)c2O)ccc1O")
"21%"
>>> observed_value("CC1(C)C=Cc2cc(-c3coc4cc(O)cc(O)c4c3=O)cc(O)c2O1")
"0%"

// below: inhibition at 24 h, 10 µM requested for another molecule
Ask: Fill blank: measured inhibition at 24 h, 10 µM of the molecule CC(C)=CCc1c(O)ccc([C@H]2COc3cc(O)c(CC=C(C)C)c(O)c3C2=O)c1O is ____.
Result: 4%

###

# Tested on: RAW264.7
# ASSAY OVERVIEW: Antiinflammatory activity in mouse RAW264.7 cells assessed as inhibition of LPS-induced NO production at 10 uM after 24 hrs by Griess reagent based assay relative to control
# Assay type: functional
# ASSAY CONTEXT: RAW264.7, 24 h
Kindly return 1 if reported inhibition at 10 µM is no lower than 10%; return 0 if it is lower.

Ask: Hello, I need to know if O=c1c(-c2ccc(O)c(O)c2)coc2cc(O)ccc12 has measured inhibition at 10 µM not below 10%. Thanks!
Result: 0

Ask: Hello, I need to know if COc1ccc(-c2coc3cc(O)ccc3c2=O)c(O)c1 [XENOGNOSIN B] has measured inhibition at 10 µM not below 10%. Thanks!
Result: 0

Ask: Hello, I need to know if O=C(/C=C/c1ccc(O)c(O)c1)c1ccc(O)c(O)c1 has measured inhibition at 10 µM not below 10%. Thanks!
Result: 0

Ask: Hello, I need to know if CC(C)=CCc1cc([C@@H]2CC(=O)c3c(cc(O)c(CC=C(C)C)c3O)O2)ccc1O [MACARANGAFLAVANONE B] has measured inhibition at 10 µM not below 10%. Thanks!
Result: 0

###

# ASSAY TARGET: Tyrosine-protein phosphatase non-receptor type 1 (Homo sapiens)
# Sequence (P18031 whole entry): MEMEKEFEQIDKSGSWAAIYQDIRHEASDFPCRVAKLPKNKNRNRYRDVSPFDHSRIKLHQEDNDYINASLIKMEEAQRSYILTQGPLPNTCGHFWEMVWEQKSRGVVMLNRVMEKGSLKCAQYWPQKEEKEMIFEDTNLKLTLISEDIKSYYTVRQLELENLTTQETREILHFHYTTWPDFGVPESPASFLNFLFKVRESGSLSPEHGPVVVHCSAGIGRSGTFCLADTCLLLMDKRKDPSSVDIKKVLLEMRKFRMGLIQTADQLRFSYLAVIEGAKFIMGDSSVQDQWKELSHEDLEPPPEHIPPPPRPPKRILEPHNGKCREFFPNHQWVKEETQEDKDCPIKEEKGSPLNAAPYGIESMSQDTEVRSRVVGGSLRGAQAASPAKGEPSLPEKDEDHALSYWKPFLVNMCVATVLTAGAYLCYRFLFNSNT
# ASSAY OVERVIEW: Inhibition of recombinant human PTP1B using p-nitrophenyl phosphate as substrate after 30 mins
pIC50: −log10 of the molar value.
Kindly return 1.0 if reported pIC50 is no lower than 6; return 0.0 if it is lower.

Answered examples (3):
>>> assigned_class("CC(C)=CCc1cc([C@@H]2CC(=O)c3ccc(O)c(CC=C(C)C)c3O2)ccc1O [GLABROL]")
1.0
>>> assigned_class("CC(C)=CCc1cc(/C=C/C(=O)c2ccc(O)c(CC=C(C)C)c2O)ccc1O [KANZONOL C]")
1.0
>>> assigned_class("CC(C)=CCc1c(O)ccc(-c2coc3c(CC=C(C)C)c(O)cc(O)c3c2=O)c1O")
1.0

Ask: Hello, I need to know if CC(C)=CCc1cc(-c2cc(=O)c3c(O)c(CC=C(C)C)c(O)cc3o2)ccc1O has measured pIC50 not below 6. Thanks!
Result: 1.0

Ask: Hello, I need to know if CC(C)=CCc1cc(-c2coc3c(CC=C(C)C)c(O)cc(O)c3c2=O)cc(O)c1O has measured pIC50 not below 6. Thanks!
Result: 0.0
